Each recorded value in this set is attributed to ChEMBL document CHEMBL1201862.

Test system: OVCAR-8
Test: NCI tumour cell line growth inhibition, 48 h
Active and inactive are the calls of the source. No stated cut-off is given here; in the data, active = GI50 up to about 1.1 µM and inactive = higher.
Possible outcomes: active, inactive

>>> assigned_category("CCOC(=O)/C(=C\\c1ccc[nH]1)C(=O)c1ccccc1")
"inactive"
>>> assigned_category("C=CCc1cc(OC)c2c(c1)C(O)CC(c1ccccc1)O2 (configuration not stated)")
"inactive"
>>> assigned_category("O=C(O)CSC1=NCCN1")
"inactive"
>>> assigned_category("C/C(=N\\OCC(O)CNC(C)C)c1ccc2c(c1)NC(=O)CS2 (configuration not stated)")
"inactive"
>>> assigned_category("N/C(=N/O)c1cn(C2OC(CO)C(O)C2O)c2ncnc(NO)c12 (configuration not stated)")
"active"
>>> assigned_category("N=C1NC(c2ccc(Cl)cc2)=CC(c2cccc(Cl)c2)S1 (configuration not stated)")
"inactive"
>>> assigned_category("CC1(CCC2C=CCC2)CCCNC1=S (configuration not stated)")
"inactive"
>>> assigned_category("Nc1nc(Cl)c(/C=N\\O)c(NCC2(CO)CC(=O)C2)n1")
"inactive"
>>> assigned_category("CCOC(=O)C(O)(NC(C)=O)C(F)(F)F (configuration not stated)")
"inactive"
>>> assigned_category("O=C1C[C@@]23CCC4(CC2CCC[C@H]3O1)OCCO4 (some centres not stated)")
"inactive"
>>> assigned_category("CC(C)(C)CC(C)(C)c1cc(O)c(O)c(CN2CCCCC2)c1")
"inactive"
>>> assigned_category("CCOC(=O)NC(=O)c1cn(CCN2CCN(c3ncnc4[nH]cnc34)CC2)c(=O)[nH]c1=O")
"inactive"

* * *

System: T47D
Assay: NCI tumour cell line growth inhibition, 48 h
The source made the active and inactive calls. No stated cut-off is given here; in the data, active = GI50 up to about 1.1 µM and inactive = higher.
Here the recorded GI50 is given for each entry.
METRIC NAME: GI50

>>> meas_value("CN1CCCOC(c2ccc([N+](=O)[O-])cc2)O1 (centres undefined)")
"> 100 µM (inactive)"
>>> meas_value("CCOC(=O)c1sc2nc(SC)nc3c2c1NCN3C")
"6.79 µM (inactive)"
>>> meas_value("CNC(=O)N(CCC#N)CCN(C(=O)NC)c1ccccc1")
"> 100 µM (inactive)"
>>> meas_value("CCOC(=O)/C(C(N)=O)=C(O)/C(O)=C(\\Br)C(=O)c1ccccc1")
"23.1 µM (inactive)"
>>> meas_value("Nc1n[n+]2cc(-c3ccccc3)n(CC(=O)c3ccccc3)c2s1")
"22.6 µM (inactive)"
>>> meas_value("Clc1ccc(Cc2nc3cc(Cl)c(Cl)cc3n2CC2CCCN3CCCCC23)cc1 (centres undefined)")
"18.1 µM (inactive)"
>>> meas_value("O=c1c2cccnc2[nH]c2ccc3cn[nH]c3c12")
"> 10 µM (inactive)"
>>> meas_value("O=C(CNCc1ccccc1)Oc1c(Cl)c(Cl)c(Cl)c(Cl)c1Cl")
"25.7 µM (inactive)"
>>> meas_value("CCN(CC)C(=O)N[C@@H](CC(C)C)C(=O)NC")
"> 100 µM (inactive)"
>>> meas_value("C=CCSc1nc2ccccc2c(=O)n1Cc1ccco1")
"29.1 µM (inactive)"
>>> meas_value("CCOP(=O)(OCC)C(C)(CC)N/C(N)=N/C#N (centres undefined)")
"> 100 µM (inactive)"
>>> meas_value("COc1cc2c(c(OC)c1)/C(=C/Sc1ccccc1)C(=O)N(C(C)(C)C)C2")
"26.7 µM (inactive)"
>>> meas_value("O=C(Nc1ccccc1)N1CC(CN2CCN(c3ccccc3)CC2)OC1=O (centres undefined)")
"> 100 µM (inactive)"
>>> meas_value("c1ccc2c(c1)[nH]c1c2cc[n+]2cc3c(cc12)CCCC3")
"1.66 µM (inactive)"
>>> meas_value("COC(=O)C1CC2CC1C1C2SC(F)(F)C1(F)F (centres undefined)")
"> 100 µM (inactive)"
>>> meas_value("C/C(=N\\O)C1CC2C=C(C#N)C1N(Cc1ccccc1)C2 (centres undefined)")
"> 100 µM (inactive)"
>>> meas_value("CC1C=CN(N(C)C)C2=C1C(=O)c1cnccc1C2=O (centres undefined)")
"1.83 µM (inactive)"
>>> meas_value("CN(C)/N=C1\\CC(c2ccccc2)C(C#N)(C#N)C1(C#N)C#N (centres undefined)")
"21 µM (inactive)"
>>> meas_value("CCOC(=O)NNC(=O)NCc1ccccc1CNC(=O)NNC(=O)OCC")
"> 100 µM (inactive)"
>>> meas_value("CN1CN(c2ccccc2)C2(CCN(Cc3nc4ccccc4s3)CC2)C1=O")
"16.2 µM (inactive)"
>>> meas_value("CC1CCC2C(C)C(=O)OC2C2(C)C(=O)C=CC12 (centres undefined)")
"> 10 µM (inactive)"
>>> meas_value("Oc1ccc2oc3c(O)c4ccccc4cc3c2c1")
"20.3 µM (inactive)"
>>> meas_value("CC(N)(Cc1c[nH]c2ccccc12)C(=O)O (centres undefined)")
"> 100 µM (inactive)"
>>> meas_value("COc1ccc2c(c1)CCc1c-2[nH]c2ccc(OC)cc12")
"20.8 µM (inactive)"
>>> meas_value("O=C1NC(=O)C(c2c[nH]c3cc(Br)ccc23)=C1c1cn(C(c2ccccc2)(c2ccccc2)c2ccccc2)cn1")
"15.2 µM (inactive)"
>>> meas_value("O=C(NCCN(CCNC(=O)c1cccc(O)c1O)CCNC(=O)c1cccc(O)c1O)c1cccc(O)c1O [TRENCAM]")
"9.73 µM (inactive)"
>>> meas_value("O=C(O)CSC1=NCCN1")
"> 100 µM (inactive)"
>>> meas_value("CCc1nc(N)c2nc(-c3ccc(C#N)cc3)oc2n1")
"> 100 µM (inactive)"
>>> meas_value("COc1cccc(C=C2N=C(C)N(n3c(-c4ccccc4)nc4ccccc4c3=O)C2=O)c1")
"> 100 µM (inactive)"
>>> meas_value("CC1(CCC2C=CCC2)CCCNC1=S (centres undefined)")
"> 10 µM (inactive)"
>>> meas_value("CCOC(=O)c1nc2ccc(C(F)(F)F)cc2nc1Oc1ccc(C(=O)OC)cc1")
"> 100 µM (inactive)"
>>> meas_value("CC(C)(C)C(=O)C(C(c1ccccc1)N1CCOCC1)N1CCOCC1 (centres undefined)")
"> 100 µM (inactive)"
>>> meas_value("Cc1ccccc1OC(C)C(=O)NN1C(=O)CSC1c1ccc(Cl)cc1 (centres undefined)")
"51.1 µM (inactive)"
>>> meas_value("CCOP(=O)(OCC)C(C)(CC)N/C(=N\\C1=NC(C(F)(F)F)(C(F)(F)F)N=C(C(F)(F)F)O1)NC(NC(C)=O)(C(F)(F)F)C(F)(F)F (centres undefined)")
"22.7 µM (inactive)"
>>> meas_value("O=C1Oc2cc(O)cc(/C=C/c3ccc(O)cc3)c2[C@@]12c1c(O)cc(O)cc1OC2c1cccc(O)c1 (some centres undefined)")
"44.8 µM (inactive)"
>>> meas_value("CN(C)c1ccc(C(c2ccc(Cl)cc2)c2ccc(N(C)C)cc2)cc1")
"64.7 µM (inactive)"
>>> meas_value("CC(C)=CCc1cc2c(cc1O)OC[C@H]1c3cc4c(cc3O[C@@H]21)OCO4")
"34.4 µM (inactive)"
>>> meas_value("Cc1ccc(NC(=O)CCc2nnc3s/c(=C\\C=C\\c4ccccc4)c(=O)n23)cc1")
"> 31.6 µM (inactive)"
>>> meas_value("Cc1ccc(C(=O)OCC(C)C)cc1/N=N/N(C)C")
"35.3 µM (inactive)"
>>> meas_value("CCCC1NC(=O)C(CC(C)C)NC(=O)c2cccc(n2)C(=O)NC(CC(C)C)C(=O)NC(CCC)C(=O)NC(C(=O)OC)CCCCNC1=O (centres undefined)")
"55 µM (inactive)"
>>> meas_value("CSc1c(C#N)c(=O)n(N)c2[nH]nc(C)c12")
"> 100 µM (inactive)"
>>> meas_value("COC(=O)/C=C/c1ccc2c(c1)CCC2")
"11.3 µM (inactive)"
>>> meas_value("COC(=O)C1(O)C(c2ccccc2)=NC2(C)CCCC21 (centres undefined)")
"> 100 µM (inactive)"
>>> meas_value("Cc1ccc2occ/c(=N\\Nc3ccccc3)c2c1")
"1.33 µM (inactive)"

* * *

System: HCC 2998
Assay: NCI tumour cell line growth inhibition, 48 h
Calls of active or inactive are those of the source. Cut-off read from the data, not from the text of the source: active = GI50 up to about 1.1 µM and inactive = higher.
METRIC NAME: GI50

>>> meas_value("CCCCCCCCOCC(O)COC(=O)CCCCCCC (centres undefined)")
"30.7 µM (inactive)"
>>> meas_value("CCOC(=O)/C(=C\\c1ccc[nH]1)C(=O)c1ccccc1")
"> 100 µM (inactive)"
>>> meas_value("O=C(OCCN=C1c2ccccc2CCc2ccccc21)c1ccccc1")
"> 100 µM (inactive)"
>>> meas_value("CCOC(=O)CCC1(C(=O)OC)CCCC1=O (centres undefined)")
"> 100 µM (inactive)"
>>> meas_value("CC(O)=NC(Cc1ccc2ccccc2c1)C(O)=NC(Cc1ccc(Cl)cc1)C(O)=NC(Cc1c[nH]c2ccccc12)C(O)=NC(CO)C(O)=NC(Cc1ccc(O)cc1)C(O)=NC(CCCN=C(N)N)C(O)=NC(CC(C)C)C(O)=NC(CCCN=C(N)N)C(=O)N1CCCC1C(O)=NC(C)C(=N)O (centres undefined)")
"63.4 µM (inactive)"
>>> meas_value("CC1=C2C(=O)O[C@@H](c3ccoc3)[C@]2(C)CCC1 [FRAXINELLONE]")
"> 100 µM (inactive)"
>>> meas_value("NC(=S)N/N=c1\\cc(C(=O)Nc2ccc([N+](=O)[O-])cc2[N+](=O)[O-])oc2ccccc12")
"> 100 µM (inactive)"
>>> meas_value("COC(=O)c1c[nH]cc1CCCCc1c[nH]cc1C(=O)OC")
"> 100 µM (inactive)"
>>> meas_value("CCC(C)NC1=C(NC(C)=O)C(=O)c2ccccc2C1=O (centres undefined)")
"> 75 µM (inactive)"
